Biological target: T1, human tumor necrosis factor-α (rHuTNF-alpha, Biosource) (human, UniProt P01375 77-233)
T1 construct: Bought recombinant protein coated on ELISA plates; The TNFα of the Biacore assay is not described further; also called TNFα; human TNFα
T1 sequence (P01375 77-233 limits assumed): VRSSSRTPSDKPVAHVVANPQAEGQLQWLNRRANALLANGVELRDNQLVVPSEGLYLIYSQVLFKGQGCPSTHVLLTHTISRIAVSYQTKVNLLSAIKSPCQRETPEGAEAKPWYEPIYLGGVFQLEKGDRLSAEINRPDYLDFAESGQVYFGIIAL
Experiment: solid-phase ELISA, Fab lysate on coated rHuTNF-alpha
outcome_measure: binding result

- binder: "SEQ ID NO 69 (Fab, V domains shown, Fab, E. coli lysate) VH: EVQLVESGGGLVQPGGSLRLSCRASQFTFSNHWMNWVRQAPGKGLEWIGEIRSKSSNSATHYAESVKGRFIISRDGNGNSLYLEMNSLKTEDTAEYYCARNYYGSTYDYWGQGTLVTVS VL: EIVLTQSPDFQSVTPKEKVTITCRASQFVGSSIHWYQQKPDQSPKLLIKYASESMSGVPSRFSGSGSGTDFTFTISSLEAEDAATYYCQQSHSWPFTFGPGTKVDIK"
  outcome_measure: "binding result"
  value: "binds"
- binder: "SEQ ID NO 162 (Fab, V domains shown, Fab, E. coli lysate) VH: EVQLVESGGGLVQPGGSLRLSCAASQFIFSNHYMNWVRQAPGKGLEWIGEIRSKSSYSATHYAESVKGRFIISRDGNKNDLTLEMNSLKTEDTAEYYCARNYYGSTYDYWGQGTLVTVS VL: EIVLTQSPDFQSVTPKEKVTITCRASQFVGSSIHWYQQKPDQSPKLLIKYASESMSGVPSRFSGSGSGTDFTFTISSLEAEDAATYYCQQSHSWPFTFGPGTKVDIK"
  outcome_measure: "binding result"
  value: "binds"
- binder: "SEQ ID NO 132 (Fab, V domains shown, Fab, E. coli lysate) VH: EVQLVESGGGLVQPGGSLRLSCAASQSIFSNHYMNWVRQAPGKGLEWIGEIRSKSIYGATSYAESVKGRFIISRDDNKNSLTLEMNSLKTEDTAEYYCARNYYGSTPDYWGQGTLVTVS VL: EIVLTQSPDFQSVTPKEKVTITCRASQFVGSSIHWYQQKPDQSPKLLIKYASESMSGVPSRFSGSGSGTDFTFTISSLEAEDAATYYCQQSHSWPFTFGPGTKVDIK"
  outcome_measure: "binding result"
  value: "binds"
